Experiment: Stability of compound in tissue culture medium assessed as remaining parent compound at 5.38 uM incubated for 24 hrs
Type: physicochemical
Details: read-out: Stability

{"Cpd smiles": "CN1CCN(C(=O)C(C)(C)c2ccc(C(=O)Nc3cn4cc(-c5ccncc5)ccc4n3)cc2)CC1", "remaining at 24 h, 5.38 µM, %": 98.8}

* * *

Target: Dual specificity tyrosine-phosphorylation-regulated kinase 1A (Homo sapiens)
pIC50: −log10 of the molar value.

{"Molecule": "CN1CCN(C(=O)C(C)(C)c2ccc(C(=O)Nc3cn4cc(-c5ccncc5)ccc4n3)cc2)CC1 [T3-CLK]", "pIC50": 6.59}

* * *

Test: Stability of compound in tissue culture medium assessed as remaining parent compound at 5.44 uM incubated for 6 hrs
Format: physicochemical
Conditions: read-out: Stability
Value kind: remaining at 6 h, 5.44 µM (%)

{"Cpd smiles": "CN1CCN(C(=O)C(C)(C)c2ccc(C(=O)Nc3cn4cc(-c5ccncc5)ccc4n3)cc2)CC1", "Value kind": "remaining at 6 h, 5.44 µM", "Output unit": "%", "Endpoint result": 98.9}

* * *

Assay: Stability of compound in tissue culture medium assessed as remaining parent compound at 5.30 uM incubated for 48 hrs
Format: physicochemical
Settings: read-out: Stability

{"Cpd smiles": "CN1CCN(C(=O)C(C)(C)c2ccc(C(=O)Nc3cn4cc(-c5ccncc5)ccc4n3)cc2)CC1", "Output unit": "%", "remaining at 48 h, 5.3 µM": 98.7}

* * *

Molecular target: UniProtKB Q9Y463
Sequence (Q9Y463 whole entry): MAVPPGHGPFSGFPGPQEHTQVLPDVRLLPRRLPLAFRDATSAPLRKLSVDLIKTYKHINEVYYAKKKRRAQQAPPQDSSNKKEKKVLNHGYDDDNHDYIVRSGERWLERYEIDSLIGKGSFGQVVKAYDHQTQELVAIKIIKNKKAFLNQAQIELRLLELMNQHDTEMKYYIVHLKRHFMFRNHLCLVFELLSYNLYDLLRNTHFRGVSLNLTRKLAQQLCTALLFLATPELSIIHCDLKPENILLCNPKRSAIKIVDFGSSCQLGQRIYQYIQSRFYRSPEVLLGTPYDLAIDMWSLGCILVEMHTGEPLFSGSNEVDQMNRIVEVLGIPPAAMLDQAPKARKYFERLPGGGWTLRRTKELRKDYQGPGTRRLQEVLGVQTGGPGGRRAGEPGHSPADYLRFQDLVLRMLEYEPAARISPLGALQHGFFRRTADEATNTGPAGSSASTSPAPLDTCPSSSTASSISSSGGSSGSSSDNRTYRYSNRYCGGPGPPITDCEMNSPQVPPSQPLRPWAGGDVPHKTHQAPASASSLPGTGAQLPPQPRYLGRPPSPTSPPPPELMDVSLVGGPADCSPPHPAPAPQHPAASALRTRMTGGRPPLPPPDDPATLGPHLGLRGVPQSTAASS
pIC50: −log10 of the molar value.
Value kind: pIC50

{"Cpd smiles": "CN1CCN(C(=O)C(C)(C)c2ccc(C(=O)Nc3cn4cc(-c5ccncc5)ccc4n3)cc2)CC1", "Value kind": "pIC50", "Endpoint result": 6.64}
